# Tested on: 454973-116-R2-J3-PDC spheroids, percent test/control viability;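 also: spheroids exposed to compounds for 7 days before readout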
# procedure.text: Anticancer human tumor 454973-116-R2-J3-PDC patient-derived pancreatic carcinoma cell line growth inhibition [CLK]
# test.settings: curve of first compound; second compound 0.0316 µM; spheroids with HUVEC and MSC
For each record, check the reported IC50: if it is below 2000 nM write true, else write false.

Challenge: # check: IC50 < 2000 nM for COc1ccc([C@@H](O)c2cc(-c3ncnc4cc(N5CCOCC5)ccc34)c(F)cc2Cl)nn1 + CN1CCN(c2cc(C(=O)Nc3cc4cc(-c5cnn(C)c5)ccc4cn3)ccn2)CC1
Response given: false

Challenge: Confirm or reject: IC50 of O=c1[nH]cc(F)c(=O)[nH]1 + CNC(=O)c1ccc(Nc2nc(OC3CCCC3)c3c(-c4ccc5nc(C)oc5c4)c[nH]c3n2)c(OC)c1 lies strictly below 2000 nM
Response given: true

Challenge: Say whether its IC50 is strictly beneath 2000 nM. Entry: C#Cc1c(F)ccc2cc(O)cc(-c3ncc4c(N5CC6CCC(C5)N6)nc(OCC56CCCN5CC(F)C6)nc4c3F)c12 (stereo not given) + CNC(=O)c1ccc(Nc2nc(OC3CCCC3)c3c(-c4ccc5nc(C)oc5c4)c[nH]c3n2)c(OC)c1
Response given: true

Challenge: In the record for CC(CO)NC(=O)c1cc(-c2ccc(Cl)cc2)nn(-c2cnn(C)c2)c1=O (stereo not given) + CNC(=O)c1ccc(Nc2nc(OC3CCCC3)c3c(-c4ccc5nc(C)oc5c4)c[nH]c3n2)c(OC)c1 , is IC50 less than 2000 nM?
Response given: false

Challenge: Lab note: confirm whether the reported IC50 for this compound is below 2000 nM, equality not counting. compound: COc1cccc2c1C(=O)c1c(O)c3c(c(O)c1C2=O)CC(O)(C(=O)CO)CC3OC1CC(N)C(O)C(C)O1 (stereo not given) + CNC(=O)c1ccc(Nc2nc(OC3CCCC3)c3c(-c4ccc5nc(C)oc5c4)c[nH]c3n2)c(OC)c1
Response given: true

Challenge: Strictly below 2000 nM in IC50? O=C(c1cc(Cc2n[nH]c(=O)c3ccccc23)ccc1F)N1CCN(C(=O)C2CC2)CC1 + CN1CCN(c2cc(C(=O)Nc3cc4cc(-c5cnn(C)c5)ccc4cn3)ccn2)CC1
Response given: false

Challenge: Say whether its IC50 is strictly beneath 2000 nM. Entry: CC(=O)O[C@H]1C(=O)[C@@]2(C)[C@H]([C@H](OC(=O)c3ccccc3)[C@]3(O)C[C@H](OC(=O)[C@H](O)[C@@H](NC(=O)c4ccccc4)c4ccccc4)C(C)=C1C3(C)C)[C@]1(OC(C)=O)CO[C@@H]1C[C@@H]2O + CNC(=O)c1ccc(Nc2nc(OC3CCCC3)c3c(-c4ccc5nc(C)oc5c4)c[nH]c3n2)c(OC)c1
Response given: true

Challenge: Is it true that IC50 reported for Nc1ccccc1NC(=O)c1ccc(CNC(=O)OCc2cccnc2)cc1 + CNC(=O)c1ccc(Nc2nc(OC3CCCC3)c3c(-c4ccc5nc(C)oc5c4)c[nH]c3n2)c(OC)c1 is less than 2000 nM?
Response given: true

Challenge: Given COC1C=CCC(C)C(C)S(=O)(=O)NC(=O)c2ccc3c(c2)N(CC2CCC21)CC1(CCCc2cc(Cl)ccc21)CO3 (stereo not given) + CN1CCN(c2cc(C(=O)Nc3cc4cc(-c5cnn(C)c5)ccc4cn3)ccn2)CC1 , is recorded IC50 strictly lower than 2000 nM?
Response given: false
